Would you mind telling me the reported Total endpoint (AKI events) of each entry?
Test system: diabetes mellitus patients
experimentDescription: Acute kidney injury
Assay type: in vivo, human
measurementSetup: primary plus secondary endpoint
// print number alone

input: Item CC1=C(C(=O)O)N2C(=O)[C@@H](NC(=O)[C@H](N)c3ccccc3)[C@H]2SC1 [Cephalexin, cephalexin] has what recorded Total endpoint (AKI events)?
output: 333

input: Try the molecule OC[C@H]1O[C@@H](c2ccc(Cl)c(Cc3ccc(O[C@H]4CCOC4)cc3)c2)[C@H](O)[C@@H](O)[C@@H]1O [Jardiance]
output: 277

input: Try the molecule OC[C@H]1O[C@@H](c2ccc(F)c(Cc3cc4ccccc4s3)c2)[C@H](O)[C@@H](O)[C@@H]1O [Ipragliflozin, ipragliflozin]
output: 269

input: Try the molecule Cc1ccc([C@@H]2O[C@H](CO)[C@@H](O)[C@H](O)[C@H]2O)cc1Cc1ccc(-c2ccc(F)cc2)s1 [Canagliflozin, canagliflozin]
output: 267

input: Try the molecule CC#CCn1c(N2CCC[C@@H](N)C2)nc2c1c(=O)n(Cc1nc(C)c3ccccc3n1)c(=O)n2C [Linagliptin, linagliptin]
output: 284

input: Try the molecule N#C[C@@H]1CCCN1C(=O)CNC12CC3CC(CC(O)(C3)C1)C2 [Vildagliptin, vildagliptin]
output: 316

input: Try the molecule CN(C)C(=N)N=C(N)N [Metformin, metformin]
output: 330

input: Try the molecule Cn1c(=O)cc(N2CCC[C@@H](N)C2)n(Cc2ccccc2C#N)c1=O [Alogliptin, alogliptin]
output: 364

input: Try the molecule CC1(C)S[C@@H]2[C@H](NC(=O)[C@H](N)c3ccc(O)cc3)C(=O)N2[C@H]1C(=O)O [Amoxicillin, amoxicillin]
output: 293

input: Try the molecule Cc1ccc(-c2cc(C(F)(F)F)nn2-c2ccc(S(N)(=O)=O)cc2)cc1 [Celecoxib, celecoxib]
output: 533

input: Try the molecule CCOc1ccc(Cc2cc([C@@H]3O[C@H](CO)[C@@H](O)[C@H](O)[C@H]3O)ccc2Cl)cc1 [Dapagliflozin, dapagliflozin]
output: 298

input: Try the molecule COc1ccc2c(c1)c(CC(=O)O)c(C)n2C(=O)c1ccc(Cl)cc1 [Indomethacin, indomethacin]
output: 497
